ASSAY_EXPLANATION: Biodistribution experiments in normal mice after i.v. injection
Assay type: in vivo
STUDY_CONDITIONS: male, ddY, mouse, in vivo, iv, total radioactivity, Biodistribution of radioactivity, Blood
Where a SMILES comes first, the peptide text is derived from it. [ ]: non-standard residue; d: D form. The star is where a group is joined. DOTA = O=C(O)CN1CCN(CC(=O)O)CCN(CC(=O)*)CCN(CC(=O)O)CC1
RECORDED_ENDPOINT: tissue uptake dose at 3 h (%ID)
Field: numeric (%ID). Do not append units.

O=C(O)CC[C@H](NC(=O)[C@H](CCC(=O)O)NC(=O)[C@H](CCC(=O)O)NC(=O)[C@H](CCC(=O)O)NC(=O)[C@H](CCC(=O)O)NC(=O)[C@H](CCC(=O)O)NC(=O)[C@H](CCC(=O)O)NC(=O)[C@H](CCC(=O)O)NC(=O)[C@H](CCC(=O)O)NC(=O)[C@H](CCC(=O)O)NC(=O)[C@H](CCC(=O)O)NC(=O)[C@H](CCC(=O)O)NC(=O)[C@H](CCC(=O)O)NC(=O)[C@H](CCC(=O)O)NC(=O)CN1CCN(CC(=O)O)CCN(CC(=O)O)CCN(CC(=O)O)CC1)C(=O)O [^67Ga-DOTA-(L-Glu)14, metal not drawn] = 0.05
O=C(O)C[C@@H](NC(=O)[C@@H](CC(=O)O)NC(=O)[C@@H](CC(=O)O)NC(=O)[C@@H](CC(=O)O)NC(=O)[C@@H](CC(=O)O)NC(=O)[C@@H](CC(=O)O)NC(=O)[C@@H](CC(=O)O)NC(=O)[C@@H](CC(=O)O)NC(=O)CN1CCN(CC(=O)O)CCN(CC(=O)O)CCN(CC(=O)O)CC1)C(=O)O [^67Ga-DOTA-(D-Asp)8, metal not drawn] ({DOTA}-[dD][dD][dD][dD][dD][dD][dD][dD]-OH) = 0.13
O=C(O)CC[C@@H](NC(=O)[C@@H](CCC(=O)O)NC(=O)[C@@H](CCC(=O)O)NC(=O)[C@@H](CCC(=O)O)NC(=O)[C@@H](CCC(=O)O)NC(=O)[C@@H](CCC(=O)O)NC(=O)[C@@H](CCC(=O)O)NC(=O)[C@@H](CCC(=O)O)NC(=O)[C@@H](CCC(=O)O)NC(=O)[C@@H](CCC(=O)O)NC(=O)[C@@H](CCC(=O)O)NC(=O)[C@@H](CCC(=O)O)NC(=O)[C@@H](CCC(=O)O)NC(=O)[C@@H](CCC(=O)O)NC(=O)CN1CCN(CC(=O)O)CCN(CC(=O)O)CCN(CC(=O)O)CC1)C(=O)O [^67Ga-DOTA-(D-Glu)14, metal not drawn] = 0.01

Lab note: measured tissue uptake dose at 3 h of O=C(O)C[C@@H](NC(=O)[C@@H](CC(=O)O)NC(=O)CN1CCN(CC(=O)O)CCN(CC(=O)O)CCN(CC(=O)O)CC1)C(=O)O [^67Ga-DOTA-(D-Asp)2, metal not drawn] ({DOTA}-[dD]-[dD]-OH) was 0.05

Lab note: measured tissue uptake dose at 3 h of O=C(O)C[C@@H](NC(=O)[C@@H](CC(=O)O)NC(=O)[C@@H](CC(=O)O)NC(=O)[C@@H](CC(=O)O)NC(=O)[C@@H](CC(=O)O)NC(=O)CN1CCN(CC(=O)O)CCN(CC(=O)O)CCN(CC(=O)O)CC1)C(=O)O [^67Ga-DOTA-(D-Asp)5, metal not drawn] ({DOTA}-[dD][dD][dD][dD][dD]-OH) was 0.13
